Values were extracted from patent US20080318942A1.

System: human breast cancer cell line MCF7
PROTOCOL: Efficacy of the compounds on the survival of tumor cells (cytotoxic effect, cell-titer Glo luminescence)
Type: cell-based
CONDITION_SET: Homo sapiens, 48 hours incubation with compound (2.4 nM to 10,000 nM), inhibition of cell survival
ASSAY_READOUT: IC50 (nM)
One number for each entry, in nM.

Quote IC50 reported for CON=Cc1cc2c(Br)c3c(c(O)c2c(=O)[nH]1)[C@]1(CC3)C(=O)c2c(O)c3c(c(O)c2C1=O)C(=O)C(N(C)C)=C(Br)C3=O please. 300
